Answer each item with its documented melting point.

q: Sample CCC(=NO)c1ccc(OCCOC)cc1 — what was its melting point?
a: 74 to 80 °C

q: Another molecule to look at: O=C(Nc1cnc(-n2nc(C(F)(F)F)cc2C2CC2)nc1)c1c(F)cccc1F
a: 280 to 281 °C

q: Another molecule to look at: CC(=O)OC1CCCC(n2c(Br)nc3cc(Cl)c(Cl)cc32)C1OC(C)=O (stereo not given)
a: 71 to 79 °C

q: Another molecule to look at: Cc1nc2c(-c3ccc(N4CCN(C)CC4)cc3)cnn2c(N)c1-c1ccc(F)cc1
a: 289 to 291 °C

q: Another molecule to look at: O=C(NNC1=NS(=O)(=O)c2ccccc21)c1ccncc1
a: 288 to 289 °C

---

Answer each item with its documented melting point.

q: Sample CC(C)Oc1ccc(C(=O)n2nc(Nc3cccc(N4CCCCC4)c3)nc2N)cc1 — what was its melting point?
a: 121 to 124 °C

q: Another molecule to look at: COc1cc2c(cc1-c1cccnc1)-c1c(C3NCCO3)c3c(n1CC2)C(=O)N(C(C)(C)C)CCC3 (centres undefined)
a: 218 to 220 °C

q: Another molecule to look at: CC1=C(c2ccc(C#N)c3ccccc23)CCC1O (centres undefined)
a: 113 to 114 °C

q: Another molecule to look at: Cc1cc(Cl)nnc1NS(=O)(=O)c1cccc2c(N(C)C)cccc12
a: 182 to 186 °C

q: Another molecule to look at: CC(C)(C)C1=NN(c2ccc(C(=O)O)cc2)C(c2ccccc2)C1 (centres undefined)
a: 233 °C

q: Another molecule to look at: CCOC(=O)c1cc(CCc2cc3c(s2)-n2c(C)nnc2CN=C3c2ccccc2Cl)ccc1CC(=O)O
a: 128 to 132 °C

q: Another molecule to look at: CC(C)C1(C)NC(c2nc(-c3ccsc3)ccc2C(=O)O)=NC1=O (centres undefined)
a: 253 to 257 °C

q: Another molecule to look at: O=[N+]([O-])C1(F)C=C(OCC2CCCSC2)C(Cl)=CC1 (centres undefined)
a: 100 to 103 °C

q: Another molecule to look at: COc1ccc(C(=O)N2c3ccccc3C(N3CCc4ccccc4C3)CC2C)cc1OC (centres undefined)
a: 128 to 129 °C

---

experimental readout: melting point

q: Sample CCCCc1ccc(-c2cc(C(=O)O)cc(-c3ccc(Cl)cc3)n2)cc1 — what was its melting point?
a: 209 to 210 °C

q: Another molecule to look at: CCc1cc2c(s1)-n1c(C)nnc1C(CCCC(=O)O)N=C2c1ccc(Cl)cc1 (stereo not given)
a: 185 to 187 °C

q: Another molecule to look at: CCOC(=O)c1c(N2CCN(C)CC2)c2cc(C)ccc2n(-c2ccccc2)c1=O
a: 188 °C

q: Another molecule to look at: CC1(Cc2ccccc2)OC(=O)Nc2ccc(-c3cccc(Cl)c3)cc21 (stereo not given)
a: 187 to 188 °C

q: Another molecule to look at: Cc1cc(C2(c3ccc(O)cc3)c3ccccc3-c3ccccc32)cc(C)c1O
a: 90 to 105 °C

q: Another molecule to look at: O=C(O)C(=NOC1CCCC1)c1ccco1
a: 96.6 to 97.7 °C

q: Another molecule to look at: CCOc1ncc(C(C)=O)cc1C(=O)Nc1c(C(N)=O)n[nH]c1CC
a: 217 to 219 °C

q: Another molecule to look at: CCCCOc1ccc(S(=O)(=O)N2CCC(NCc3ccccc3)C2)cc1 (stereo not given)
a: 99 to 100 °C

q: Another molecule to look at: COCCC1(C(=O)N[C@@H](Cc2ccc(-c3c(C(F)(F)F)cc(C)n(C)c3=O)cc2)C(=O)O)CCCC1
a: 181 to 183 °C

q: Another molecule to look at: c1cc2ncn(CCCCc3nnnn3C3CCCCC3)c2cn1
a: 133 to 135 °C

---

Answer each item with its documented melting point.

q: Sample CCOC(=O)C(=O)c1cc(OC)c(O)c([N+](=O)[O-])c1 — what was its melting point?
a: 165 to 167 °C

q: Another molecule to look at: CC(=O)OC1CSC(Oc2cncc(-c3ccc(C#N)c(Cl)c3)c2)C(OC(C)=O)C1OC(C)=O (centres undefined)
a: 148 to 150 °C

q: Another molecule to look at: CC(C)=CCCC(C)=CCNC(=O)Nc1ccccc1CCc1cc(C(C)(C)C)c(O)c(C(C)(C)C)c1
a: 87 to 87.5 °C

q: Another molecule to look at: O=C(O)C1=CS[C@@H]2/C(=C\c3cc4c(s3)CCN(Cc3ccccc3)C4)C(=O)N12
a: 198 °C

q: Another molecule to look at: O=C(O)c1cn(-c2cc([N+](=O)[O-])c(F)c(F)c2F)c2nc(Cl)c(F)cc2c1=O
a: 216 to 221 °C

q: Another molecule to look at: COc1cccc(NC(=S)Nc2cscc2C)c1N
a: 148 to 153 °C

q: Another molecule to look at: CCOC(OCC)c1ccccc1CN(CCn1ccc2oc(C)cc2c1=O)Cc1ccc2c(c1)N(C)C(=O)C(C)(C)C(=O)N2CC
a: 138 to 139 °C

q: Another molecule to look at: CC(=O)Nc1nc(C)c(CCN2CCN(C(c3ccccc3)c3ccccc3)CC2)s1
a: 166 to 168 °C

q: Another molecule to look at: Cn1cnc([N+](=O)[O-])c1Sc1nc(N)nc2c1ncn2C1C=CC(CO)C1 (centres undefined)
a: 207 to 208 °C

q: Another molecule to look at: CCCc1cc(=O)[nH]c2c3c(cc(O)c12)OC(C)C(C)C3=O (centres undefined)
a: 295 to 296 °C

q: Another molecule to look at: CC(=O)OC12CC3CC(CC(C3)C1)C2
a: 144 to 145 °C

q: Another molecule to look at: CC(CN1CCC(Nn2cccc2)CC1)c1ccccc1 (centres undefined)
a: 72 to 74 °C

q: Another molecule to look at: COc1ccc(/C=C/C(=O)c2ccc(C(=O)O)cc2)cc1-c1cccs1
a: 219 to 220 °C

q: Another molecule to look at: COC(=O)c1ccccc1N(C)C(=O)c1ccc(OC)nc1
a: 68 to 70 °C

q: Another molecule to look at: COc1cn(-c2ccc(N3CCOCC3=O)cc2F)nc(-c2ccnn2-c2ccccc2)c1=O
a: 193 to 195 °C

q: Another molecule to look at: O=C(CO)c1cc(O)c(O)c([N+](=O)[O-])c1
a: 208 to 210 °C

q: Another molecule to look at: OCc1ccc(OCCCCl)cc1
a: 65 °C

q: Another molecule to look at: O=C(O)[C@H]1CCC(=O)[C@@H](n2nc(-c3c(-c4ccccc4)nn4ccccc34)ccc2=O)C1 (relative stereo)
a: 155 to 165 °C

q: Another molecule to look at: COc1ccc(OC)c2c1C[C@@H](O)[C@H](N1CCN(c3ccccc3Cl)CC1)C2 (relative stereo)
a: 237 to 239 °C

---

Answer each item with its documented melting point.

q: Sample CC1CC(C)(C)Nc2ccc3c(c21)C(c1ccc(Cl)cc1)Oc1ccccc1-3 (stereo not given) — what was its melting point?
a: 158 to 159 °C

q: Another compound to look at: COc1ccc(C(=O)Nc2cccc(Cl)c2)cc1NC(=S)Nc1ccc(F)cc1
a: 184 to 185 °C

q: Another compound to look at: Cc1cc([N+](=O)[O-])c(O)c(Cl)c1C
a: 62 to 63 °C

q: Another compound to look at: CCCc1nn(-c2ccc(C(F)(F)F)cn2)cc1CCCOc1cc(CC(=O)O)ccc1OCC
a: 124 to 125 °C

q: Another compound to look at: CC(Cc1ccc(F)cc1)(NC(=O)CNC(=O)CN)c1ccc(F)cc1 (stereo not given)
a: 139 to 140 °C

---

Answer each item with its documented melting point.

q: Sample CN[C@@H]1COc2cc(Cl)cc(-c3ccc(Cl)cc3C)c2O1 — what was its melting point?
a: 110 °C

q: Another compound to look at: Nc1nc2c(nnn2COC(CO)CO)c(=O)[nH]1
a: 233 to 234 °C

q: Another compound to look at: CC(C)COc1ccc2sc(-c3ccccn3)nc(=O)c2c1
a: 136 °C

q: Another compound to look at: CCc1nc2c(N)nc3ccc(OCc4ccccc4)cc3c2n1CCCCNC(=O)c1ccccc1
a: 226 to 230 °C

q: Another compound to look at: Cn1cc(-c2ccccc2)c(=O)c(-c2ccccc2F)c1
a: 165 °C

q: Another compound to look at: CC(=O)Nc1ccc2c(c1)CCC(CO)O2 (centres undefined)
a: 156 °C

q: Another compound to look at: CN1CCC(=C2c3cc(Cl)ccc3CC(=O)c3sccc32)CC1
a: 168 to 169 °C

q: Another compound to look at: CCOC(=O)c1c2ccc(Cl)cc2c(-c2ccccc2)n1CCCOS(C)(=O)=O
a: 91 to 92 °C

q: Another compound to look at: CCc1noc(-c2cc3c4cc(S(=O)(=O)N(C)C)ccc4n(CCCCl)c3cn2)n1
a: 223 to 224 °C

q: Another compound to look at: CC(=O)Nc1c([N+](=O)[O-])cc(Br)cc1[N+](=O)[O-]
a: 238 to 239 °C

q: Another compound to look at: Cc1nnc2c(C(C)Br)ccnn12 (centres undefined)
a: 125 to 128 °C

q: Another compound to look at: Fc1ccc(Cn2c(NC3CCN(CCc4cnccn4)CC3)nc3ccccc32)cc1
a: 165 °C

q: Another compound to look at: CCC(=O)Nc1cccc(-c2ccc3nnc(C)n3n2)c1
a: 265 to 268 °C

q: Another compound to look at: NCC1CCN(Cc2ccccc2)CC1
a: 88 °C

q: Another compound to look at: CC1Nc2ccccc2C(=O)N1CCN1CCC(c2noc3cc(F)ccc23)CC1 (centres undefined)
a: 164 to 165 °C

q: Another compound to look at: COC(=O)CN(Cc1ccccc1N)S(=O)(=O)c1ccc(OC)cc1
a: 100 to 102 °C

q: Another compound to look at: CCCCCCCCCCCCCCCCCCNC(=O)OCC(CNS(=O)(=O)CCCCl)COC (centres undefined)
a: 72 to 73 °C

q: Another compound to look at: COc1ccc(-n2nc(Sc3cccc4ccccc34)c(C)c(C#N)c2=O)cc1
a: 181 to 183 °C

q: Another compound to look at: CN(Cc1ccc(NC(=O)C2=Cc3cc(-c4ccc(Cl)s4)ccc3S(=O)(=O)CC2)cc1)C1CCOCC1
a: 221 to 222 °C

q: Another compound to look at: CCCCc1nn(-c2cc(NC(=O)CC)ccc2C(F)(F)F)c(=O)n1Cc1ccc(-c2ccccc2S(=O)(=O)NC(=O)c2ccccc2F)cc1F
a: 119 to 122 °C

q: Another compound to look at: COc1cc(OC)c(-c2cc3ccccc3[nH]2)cc1C=CC(=O)c1ccc(C(=O)O)cc1
a: 210 to 212 °C

q: Another compound to look at: O=C(Nc1ccccc1F)c1ccccc1CN1C(=O)C2(COc3cc4c(cc32)CCO4)c2ccccc21 (centres undefined)
a: 195 to 197 °C

q: Another compound to look at: Nc1ncc2c(n1)CCC(NC(=O)[C@@H]1CCCN1C(=O)[C@@H](CC1CCCCC1)NS(=O)(=O)Cc1ccccc1)C2 (some centres undefined)
a: 114 to 117 °C

q: Another compound to look at: CC(=O)Nc1cc(N)ccc1OCCCN
a: 102 to 106 °C

q: Another compound to look at: CSc1cccc2c1CCn1cc(-c3ccccc3)nc1C2OC1CCN(C)CC1 (centres undefined)
a: 134 °C

q: Another compound to look at: FC(F)(F)c1cc(-c2ncn(CCCN3CCOCC3)c2-c2ccncc2)cc(C(F)(F)F)c1
a: 136 to 138 °C

q: Another compound to look at: O=C(O)Cc1cc(Br)cc(Br)c1OCCc1ccccc1
a: 81 to 84 °C

q: Another compound to look at: Cc1ccc2c(c1)C=Cc1cc(C)ccc1C2c1cn(Cc2ccc(C(=O)N[C@@H](CC(=O)O)C(=O)O)o2)c(=O)[nH]c1=S
a: 195 °C

q: Another compound to look at: CCc1nc(-c2ccc(OCCCn3ccnc3C)cc2)no1
a: 77 to 78.5 °C

q: Another compound to look at: Cc1cc(=O)[nH]c2ccc(OCCCN3CCN(Cc4ccc(C(C)(C)C)cc4)CC3)cc12
a: 171 to 172 °C

q: Another compound to look at: CC(CSC(=S)c1cccs1)C(=O)N1CCCC1C(=O)O (centres undefined)
a: 149 to 150 °C

q: Another compound to look at: CC(C)CCS(=O)(=O)NC(=O)/C=C/c1cc(OC2CCOCC2)nn1Cc1ccc(Cl)cc1Cl
a: 143 to 144 °C

q: Another compound to look at: C=CCCn1c(=O)c2c(ncn2CCC)n(C)c1=O
a: 48 °C

q: Another compound to look at: CC(C)n1nc(C#Cc2ccc(F)cc2)ccc1=O
a: 106 °C

q: Another compound to look at: COc1ccc2c(c1)N(Cc1ccccc1)C(=O)C1CCCC1=N2 (centres undefined)
a: 105 to 107 °C

q: Another compound to look at: CCCCCCCCCCCCCCCCC[C@H](C[C@H](O)[C@H](CC)C(=O)O)OCc1ccccc1
a: 62 to 63.5 °C

q: Another compound to look at: CN(C)C(=O)COc1ccc2c(-c3ccccc3F)noc2c1Cl
a: 116 °C

q: Another compound to look at: CCc1cc(Cc2cnc(N)nc2N)cc(CC)c1O
a: 200 to 202 °C

q: Another compound to look at: O=C(CC1CSCCC1=O)c1ccc(F)cc1 (centres undefined)
a: 112 to 114 °C

From: a melting point compilation (Tetko et al.; mined from patent text by program, amines drawn as free bases though some values may be those of a salt)
